- EXPERIMENTAL_TARGET: D2 receptor (Chlorocebus aethiops)
- Sequence (P52702 whole entry): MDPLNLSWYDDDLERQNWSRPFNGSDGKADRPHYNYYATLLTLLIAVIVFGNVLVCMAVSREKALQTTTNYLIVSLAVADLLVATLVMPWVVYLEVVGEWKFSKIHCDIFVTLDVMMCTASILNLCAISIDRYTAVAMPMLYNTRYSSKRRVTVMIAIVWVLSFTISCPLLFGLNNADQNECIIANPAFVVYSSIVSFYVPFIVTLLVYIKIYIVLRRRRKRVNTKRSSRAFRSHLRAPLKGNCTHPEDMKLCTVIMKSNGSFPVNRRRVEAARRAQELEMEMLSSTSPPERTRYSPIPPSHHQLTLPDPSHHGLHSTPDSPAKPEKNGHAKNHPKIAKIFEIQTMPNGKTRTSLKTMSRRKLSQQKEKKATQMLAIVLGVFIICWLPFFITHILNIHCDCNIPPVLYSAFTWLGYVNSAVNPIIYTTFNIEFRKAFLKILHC
- TEST: D2 receptor binding (3H-YM 09151-2 displacement)
- MEASUREMENT_CONTEXT: Table 1; 0.5 nM 3H-YM 09151-2, COS cells with recombinant receptor
TEST_READOUT: pKi
// field semantics: pKi = negative decimal log of concentration (mol/L)

-- ask Would you kindly share the measured pKi for Cc1cc(NCCCN2CCN(c3ncccn3)CC2)nc2ccccc12 ?
-- reply 5.48

----------
In this section, each of the compounds is paired with its reported Ki.
- EXPERIMENTAL_TARGET: D4 receptor
- TEST: D4 receptor binding (3H-YM 09151-2 displacement)
- MEASUREMENT_CONTEXT: Table 1; 0.5 nM 3H-YM 09151-2, COS cells with recombinant receptor
Report only the number, with the unit nM understood.

Cc1cc(NCCCN2CCN(c3ncccn3)CC2)nc2ccccc12 | 10
Cc1cccc(N2CCN(CCCNc3ccc4ccccc4n3)CC2)c1C | 22
Fc1cnc(N2CCN(CCNC3=Nc4ccccc4CC3)CC2)nc1 | 8

Alright, here's another compound for you.
-- ask Fill in: Ki of c1ccc(N2CCN(CCNC3=Nc4ccccc4CC3)CC2)nc1 is ___
-- reply 30
